- Tested target: RecA (Escherichia coli)
- Construct: purchased USB Inc. (Cleveland, Ohio)
- Sequence (P0A7G6 whole entry): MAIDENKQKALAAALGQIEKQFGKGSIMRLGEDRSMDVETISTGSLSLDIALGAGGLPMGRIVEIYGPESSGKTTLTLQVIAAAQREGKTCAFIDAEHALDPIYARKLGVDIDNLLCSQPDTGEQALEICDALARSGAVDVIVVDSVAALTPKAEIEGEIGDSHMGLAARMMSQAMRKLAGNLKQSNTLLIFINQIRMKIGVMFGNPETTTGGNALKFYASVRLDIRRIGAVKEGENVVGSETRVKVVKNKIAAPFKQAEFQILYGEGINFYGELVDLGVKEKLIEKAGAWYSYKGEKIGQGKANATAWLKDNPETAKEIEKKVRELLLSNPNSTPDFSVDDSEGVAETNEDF
- Run description: biochemical
- Set-up: species or system E. coli
- Measurement parameters: IC50 for RecA (D-loop), RecA 0.3 μM, ssDNA 0.9 μM, dsDNA 15 μM; B02 incubated with protein before ssDNA
pIC50: −log10 of the molar value.
Readout kind: pIC50

Need pIC50, item O=c1c2ccccc2nc(/C=C/c2cccnc2)n1Cc1ccccc1
< 4.00

---

Target chain: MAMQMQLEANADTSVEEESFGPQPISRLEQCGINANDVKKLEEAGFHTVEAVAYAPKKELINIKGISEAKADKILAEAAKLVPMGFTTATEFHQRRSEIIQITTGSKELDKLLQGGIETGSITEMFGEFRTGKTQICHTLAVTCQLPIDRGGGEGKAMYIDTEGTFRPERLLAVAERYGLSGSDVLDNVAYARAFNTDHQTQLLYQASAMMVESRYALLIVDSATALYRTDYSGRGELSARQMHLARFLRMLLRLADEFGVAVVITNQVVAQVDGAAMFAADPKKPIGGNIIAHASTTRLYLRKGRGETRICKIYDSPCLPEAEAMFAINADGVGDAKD
Collected pIC50 values appear next to each entry.
In simple prose, pIC50 is minus the logarithm base ten of a concentration in moles per litre.

# Smi, pIC50
data = [
    ("CCn1c(/C=C/c2cccnc2)nc2ccccc2c1=O", 4.82),
]

// next entry
Can you look up the measured pIC50 of Cc1cccc(-n2c(/C=C/c3cccnc3)nc3ccccc3c2=O)c1 for me?
4.56
